# assayInfo: Depletion of parent compound over 90 min in fresh or thermally-inactivated HLM
# Format: in vitro ADME, human
# conditionNotes: both, human, human liver microsomes, pH 7.4
endpoint: half-life at 1000 μM (min)
Output spec: scalar in min, unitless text.

Data request, read-out half-life at 1000 μM, for COC(=O)C1=CCCN(C)C1
17.2

* * *

# assayInfo: Depletion of parent compound over 90 min in fresh or thermally-inactivated HLC
# Type: in vitro ADME, human
# conditionNotes: both, human, human liver cytosol, pH 7.4
endpoint: half-life at 10 μM (h)
Output spec: scalar in h, unitless text.

Data request, read-out half-life at 10 μM, for COC(=O)C1=CCCN(C)C1
1.62

* * *

Listed molecules paired with reported microsomal CLint
# assayInfo: Enzyme kinetics of hydrolysis
# Type: in vitro ADME, human
# conditionNotes: both, human, human liver cytosol, pH 7.4
Returns: string containing the numeric result and its unit.

| sampleSmiles | microsomal CLint |
| --- | --- |
| COC(=O)C1=CCCNC1 | 0.518 µL/min/mg |

// next item, microsomal CLint requested
Data request, read-out microsomal CLint, for COC(=O)C1=CCCN(C)C1
12.9 µL/min/mg

* * *

# Test system: arecoline hydrolase activity in HLC
# assayInfo: Reaction phenotyping with esterase inhibitors in HLC
# Format: biochemical, human
# conditionNotes: HLC 0.2 mg/ml, arecoline 25 μM, 15 min; inhibitor concentrations as in HLM
endpoint: change in mean percent activity of arecoline hydrolase compared to control

// below: answered compounds
| compound | reportedMeasurement |
| --- | --- |
| CN(C)C(=O)C(CCN1CCC(O)(c2ccc(Cl)cc2)CC1)(c1ccccc1)c1ccccc1 [loperamide] | no significant change |
| O=[N+]([O-])c1ccc(OP(=O)(O)Oc2ccc([N+](=O)[O-])cc2)cc1 [BNPP, bis(4-nitrophenyl)-phosphate] | significant reductions |
| C=CC[N+](C)(C)c1ccc(CCC(=O)CCc2ccc([N+](C)(C)CC=C)cc2)cc1.[Br-].[Br-] | no significant change |
| C[C@@H]1CC[C@@]2(OC1)O[C@H]1[C@@H](O)[C@H]3[C@@H]4CC[C@H]5C[C@@H](O[C@@H]6O[C@H](CO)[C@H](O[C@@H]7O[C@H](CO)[C@@H](O)[C@H](O[C@@H]8OC[C@@H](O)[C@H](O)[C@H]8O)[C@H]7O[C@@H]7O[C@H](CO)[C@H](O)[C@H](O[C@@H]8O[C@H](CO)[C@@H](O)[C@H](O)[C@H]8O)[C@H]7O)[C@H](O)[C@H]6O)[C@H](O)C[C@]5(C)[C@H]4CC[C@]3(C)[C@H]1[C@@H]2C | significant reductions |
| CCN(CC)C(C)CN1c2ccccc2Sc2ccccc21 (stereo not shown) | no significant change |
| CC[C@]1(O)C[C@@H]2CN(CCc3c([nH]c4ccccc34)[C@@](C(=O)OC)(c3cc4c(cc3OC)N(C)[C@H]3[C@@](O)(C(=O)OC)[C@H](OC(C)=O)[C@]5(CC)C=CCN6CC[C@]43[C@@H]65)C2)C1 | no significant change |

// next item, change in mean percent activity of arecoline hydrolase compared to control requested
Data request, read-out change in mean percent activity of arecoline hydrolase compared to control, for CCO
significant reductions

* * *

# assayInfo: Depletion of parent compound over 90 min in fresh or thermally-inactivated HLC
# Format: in vitro ADME, human
# conditionNotes: both, human, human liver cytosol, pH 7.4
endpoint: half-life at 1000 μM (h)
Output spec: scalar in h, unitless text.

Data request, read-out half-life at 1000 μM, for COC(=O)C1=CCCN(C)C1
2.1

* * *

# assayInfo: Depletion of parent compound over 90 min in fresh or thermally-inactivated HLM
# Type: in vitro ADME, human
# conditionNotes: both, human, human liver microsomes, pH 7.4
endpoint: half-life at 100 μM (min)
Output spec: scalar in min, unitless text.

Data request, read-out half-life at 100 μM, for COC(=O)C1=CCCN(C)C1 [arecoline]
16.6
